protein stability index reference
B1: TIA1 (parent)
chain: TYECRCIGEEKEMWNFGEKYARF

# Variants of: B1
# assay overview: protein stability index of a GFP-peptide fusion (GPS, HEK-293T) (PSI 1-6); higher = more stable;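 further: lentivirally expressed fusions sorted by FACS into six bins by GFP to DsRed ratio, PSI derived from sequencing read proportions per bin multiplied by bin number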
# settings: c terminus: native
// response body must contain only the number

Here is how some variants turned out for protein stability index.
R22P	1.92
E18A	1.27
E18F	2.24
E10S	2.23
K19A	1.65

response.value for `W14V` (field: protein stability index) = 2.34

# protein stability index of `N15L` = 2.37

So, `R22S` ? Its protein stability index was 2.29

For record `E9A` the listed protein stability index is 1.85

So for `E12T` , the logged protein stability index turned out to be 2.19
